Target: Coagulation factor X (Homo sapiens)
Sequence (P00742 41-179 limits assumed): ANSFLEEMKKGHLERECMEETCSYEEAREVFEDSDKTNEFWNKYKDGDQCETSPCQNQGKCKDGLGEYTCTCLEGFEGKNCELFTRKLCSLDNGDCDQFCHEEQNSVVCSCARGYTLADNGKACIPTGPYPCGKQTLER
Sequence (P00742 235-488 limits assumed): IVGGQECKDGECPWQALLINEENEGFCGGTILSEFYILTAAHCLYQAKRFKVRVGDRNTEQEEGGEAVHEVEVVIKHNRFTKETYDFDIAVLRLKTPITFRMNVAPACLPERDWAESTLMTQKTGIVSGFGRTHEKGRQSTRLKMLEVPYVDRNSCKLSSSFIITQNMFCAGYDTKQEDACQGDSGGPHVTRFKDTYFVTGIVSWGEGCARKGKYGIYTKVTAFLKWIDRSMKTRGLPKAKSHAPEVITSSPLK
measured-property: IC50

Record request: IC50 value, item N#Cc1cccc([C@@H](NCC2CC2)c2ccc(F)c(NC(=O)c3cc(C(F)(F)F)nn3-c3cccc(CN)c3)c2)c1 (stereo in doubt) > 50 µM

====

Assay: Solubility of compound at pH 7
Format: physicochemical
Settings: buffer
measured-property: solubility (µg/mL)
One number for each entry, in µg/mL.

compound="N#Cc1cccc([C@@H](NCC2CC2)c2ccc(F)c(NC(=O)c3cc(C(F)(F)F)nn3-c3cccc(CN)c3)c2)c1 (stereo in doubt)" measured_result=160

# query: solubility of entry C=Cc1cc(C(=O)Nc2ccc(C(=N)N)cc2)c(-c2ccc(C(=O)NCC3CC3)nc2C(=O)O)cc1OC 1090

====

Assay: Half life in rat at 30 mg/kg, po
Format: ADME, organism-based
Settings: in vivo
measured-property: half-life (h)
One number for each entry, in h.

Look at this compound and give its reported half-life. N#Cc1cccc([C@@H](NCC2CC2)c2ccc(F)c(NC(=O)c3cc(C(F)(F)F)nn3-c3cccc(CN)c3)c2)c1 (stereo in doubt) 18.5

====

Test: Half life in monkey at 2.5 mg/kg, iv
Assay type: ADME, organism-based, Macaca mulatta
Settings: rhesus monkey, in vivo
measured-property: half-life (h)
One number for each entry, in h.

// half-life lookup, key: N#Cc1cccc([C@@H](NCC2CC2)c2ccc(F)c(NC(=O)c3cc(C(F)(F)F)nn3-c3cccc(CN)c3)c2)c1 (stereo in doubt) 18.3

====

Test: Clearance in rat at 30 mg/kg, po
Assay type: ADME, organism-based
Settings: in vivo
measured-property: CL/F (mL/min/kg)
One number for each entry, in mL/min/kg.

May I ask what CL/F has been recorded for N#Cc1cccc([C@@H](NCC2CC2)c2ccc(F)c(NC(=O)c3cc(C(F)(F)F)nn3-c3cccc(CN)c3)c2)c1 (stereo in doubt) [BEROTRALSTAT] ? 81

====

Assay: AUC(0 to 24 hrs) in monkey at 2.5 mg/kg, iv
Format: ADME, organism-based, Macaca mulatta
Design: time < 24 hr, route intravenous, dose 2.5 mg/kg
Settings: rhesus monkey, in vivo
measured-property: AUC(0-t) at 24 h (ng·h/mL)
Give bare numbers, in ng·h/mL.

# input compound: N#Cc1cccc([C@@H](NCC2CC2)c2ccc(F)c(NC(=O)c3cc(C(F)(F)F)nn3-c3cccc(CN)c3)c2)c1 (stereo in doubt) [BEROTRALSTAT] ; wanted: its AUC(0-t) at 24 h 974

====

Assay: AUC(0 to 24 hrs) in monkey at 25 mg/kg, po
Format: ADME, organism-based, Macaca mulatta
Set-up: time < 24 hr, route oral, dose 25 mg/kg
Details: rhesus monkey, in vivo
measured-property: AUC(0-t) at 24 h (ng·h/mL)
Give bare numbers, in ng·h/mL.

GET /values?readout=AUC(0-t) at 24 h&item= N#Cc1cccc([C@@H](NCC2CC2)c2ccc(F)c(NC(=O)c3cc(C(F)(F)F)nn3-c3cccc(CN)c3)c2)c1 (stereo in doubt) [BEROTRALSTAT] 4150

====

Experiment: Oral bioavailability in monkey at 25 mg/kg
Type: ADME, organism-based, Macaca mulatta
Conditions: rhesus monkey, in vivo
measured-property: bioavailability
Form entry: enter the amount, then its unit.

Fill in the blank: the reported bioavailability of N#Cc1cccc([C@@H](NCC2CC2)c2ccc(F)c(NC(=O)c3cc(C(F)(F)F)nn3-c3cccc(CN)c3)c2)c1 (stereo in doubt) is ____. 45%
